Test system: ALOMY (blackgrass)
Test: Pre-emergence herbicidal activity, cool season
Assay type: in vivo, Alopecurus myosuroides
Details: GR80 = lowest tested rate (300, 100, 30, 10 g/ha) with 80% or greater inhibition; approx. 14 days after treating; 18/13° C.
Observed Property: Pre-emergence activity (GR80) ALOMY (g/ha)
State the answer as a number, implicitly in g/ha.

Some compounds with known Pre-emergence activity (GR80) ALOMY results, for comparison:
1. COCCN(C)C(=O)n1cnc(S(=O)(=O)C(F)(F)C(F)F)n1 : 300
2. CCCN(CC)C(=O)n1cnc(S(=O)(=O)C(F)F)n1 : 30
3. C=C(Br)CC(F)(F)S(=O)(=O)c1ncn(C(=O)N(CC)CC)n1 : 100
4. C=CCN(C)C(=O)n1cnc(S(=O)(=O)C(F)(F)C(F)F)n1 : 100
5. CCSC(F)(F)S(=O)(=O)c1ncn(C(=O)N(C)CCOC)n1 : 300
6. CON(C)C(=O)n1cnc(S(=O)(=O)C(F)(F)C(F)F)n1 : 300
7. CCCN(CC)C(=O)n1cnc(S(=O)(=O)C(F)(F)C(F)F)n1 : 300

[in] Using the record for CCCN(CC)C(=O)n1cnc(S(=O)(=O)C(F)(F)Cl)n1 , report its Pre-emergence activity (GR80) ALOMY.
[out] 100

###

Test system: ALOMY (blackgrass)
Assay: Pre-emergence herbicidal activity, cool season
Format: in vivo, Alopecurus myosuroides
Conditions: GR80 = lowest tested rate (300, 100, 30, 10 g/ha) with 80% or greater inhibition; approx. 14 days after treating; 18/13° C.
Quick list: Pre-emergence activity (GR80) ALOMY per entry.

Some compounds with known Pre-emergence activity (GR80) ALOMY results, for comparison:
1) CCN(CC)C(=O)n1cnc(S(=O)(=O)C(F)(F)C(=O)c2ccccc2)n1 [Example 6] : 100 g/ha
2) C=C(C)CC(F)(F)S(=O)(=O)c1ncn(C(=O)N(CC)CC)n1 [Example 18] : 300 g/ha
3) COCCN(C)C(=O)n1cnc(S(=O)(=O)C(F)(F)C(F)(F)Br)n1 [Example 76] : 300 g/ha
4) CCSC(F)(F)S(=O)(=O)c1ncn(C(=O)N(C)OC)n1 [Example 57] : 300 g/ha

[in] Using the record for CCN(CC)C(=O)n1cnc(S(=O)(=O)C(F)(F)Br)n1 [Example 1] , report its Pre-emergence activity (GR80) ALOMY.
[out] 300 g/ha

[in] Using the record for CCN(CC)C(=O)n1cnc(S(=O)(=O)C(F)(F)SCc2ccccc2)n1 [Example 10] , report its Pre-emergence activity (GR80) ALOMY.
[out] 300 g/ha

[in] Using the record for CCN(CC)C(=O)n1cnc(S(=O)(=O)C(F)(F)F)n1 [Example 2] , report its Pre-emergence activity (GR80) ALOMY.
[out] 100 g/ha

[in] Using the record for CN(C(=O)n1cnc(S(=O)(=O)C(F)(F)Br)n1)C1CCCCC1 [Example 43] , report its Pre-emergence activity (GR80) ALOMY.
[out] 300 g/ha

[in] Using the record for C=CCN(C)C(=O)n1cnc(S(=O)(=O)C(F)(F)Br)n1 [Example 41] , report its Pre-emergence activity (GR80) ALOMY.
[out] 300 g/ha

[in] Using the record for CCN(CC)C(=O)n1cnc(S(=O)(=O)C(F)(F)C(F)F)n1 [Example 16] , report its Pre-emergence activity (GR80) ALOMY.
[out] 100 g/ha

[in] Using the record for C=C(CC(F)(F)S(=O)(=O)c1ncn(C(=O)N(CC)CC)n1)C[Si](C)(C)C [Example 20] , report its Pre-emergence activity (GR80) ALOMY.
[out] 100 g/ha

[in] Using the record for O=C(N1CCCC1)n1cnc(S(=O)(=O)C(F)(F)Br)n1 [Example 23] , report its Pre-emergence activity (GR80) ALOMY.
[out] 300 g/ha

[in] Using the record for CCN(CC)C(=O)n1cnc(S(=O)(=O)C(F)(F)SC)n1 [Example 9] , report its Pre-emergence activity (GR80) ALOMY.
[out] 300 g/ha

[in] Using the record for CCCN(CC)C(=O)n1cnc(S(=O)(=O)C(F)(F)SCC)n1 [Example 51] , report its Pre-emergence activity (GR80) ALOMY.
[out] 300 g/ha

[in] Using the record for C=CCC(F)(F)S(=O)(=O)c1ncn(C(=O)N(CC)CC)n1 [Example 17] , report its Pre-emergence activity (GR80) ALOMY.
[out] 100 g/ha

###

Test system: SASKR (russian thistle)
Assay: Pre-emergence herbicidal activity, cool season
Format: in vivo, Salsola kali
Details: lowest tested rate with 80% or greater inhibition; rates 300, 100, 30, 10 g/ha; about 14 days
Observed Property: Pre-emergence activity GR80, SASKR

Some compounds with known Pre-emergence activity GR80, SASKR results, for comparison:
1. CN(C(=O)n1cnc(S(=O)(=O)C(F)(F)C(F)(F)Br)n1)C1CCCCC1 [Example 79] : [empty]
2. O=C(N1CCOCC1)n1cnc(S(=O)(=O)C(F)(F)C(F)(F)Br)n1 [Example 72] : [empty]
3. O=C(N1CCOCC1)n1cnc(S(=O)(=O)C(F)(F)C(F)F)n1 [Example 60] : [empty]
4. CCN(CC)C(=O)n1cnc(S(=O)(=O)C(F)(F)C(F)F)n1 [Example 16] : 100 g/ha
5. CN(C(=O)n1cnc(S(=O)(=O)C(F)(F)Cl)n1)C1CCCCC1 [Example 91] : 30 g/ha

[in] Using the record for CCN(CC)C(=S)n1cnc(S(=O)(=O)C(F)(F)Br)n1 [Example 46] , report its Pre-emergence activity GR80, SASKR.
[out] 300 g/ha

[in] Using the record for CCCN(CC)C(=O)n1cnc(S(=O)(=O)C(F)(F)SCC)n1 [Example 51] , report its Pre-emergence activity GR80, SASKR.
[out] 100 g/ha

[in] Using the record for CCCN(CC)C(=O)n1cnc(S(=O)(=O)C(F)(F)C(F)(F)Br)n1 [Example 75] , report its Pre-emergence activity GR80, SASKR.
[out] 10 g/ha

[in] Using the record for COCCN(C)C(=O)n1cnc(S(=O)(=O)C(F)F)n1 [Example 29] , report its Pre-emergence activity GR80, SASKR.
[out] 300 g/ha

[in] Using the record for CCN(CC)C(=S)n1cnc(S(=O)(=O)C(F)F)n1 [Example 35] , report its Pre-emergence activity GR80, SASKR.
[out] [empty]

[in] Using the record for C=CCN(C)C(=O)n1cnc(S(=O)(=O)C(F)(F)C(F)(F)Br)n1 [Example 77] , report its Pre-emergence activity GR80, SASKR.
[out] [empty]

[in] Using the record for C=C(CC(F)(F)S(=O)(=O)c1ncn(C(=O)N(CC)CC)n1)C[Si](C)(C)C [Example 20] , report its Pre-emergence activity GR80, SASKR.
[out] [empty]

[in] Using the record for CCN(CC)C(=S)n1cnc(S(=O)(=O)C(F)(F)Cl)n1 [Example 94] , report its Pre-emergence activity GR80, SASKR.
[out] [empty]

[in] Using the record for CON(C)C(=O)n1cnc(S(=O)(=O)C(F)(F)Br)n1 [Example 45] , report its Pre-emergence activity GR80, SASKR.
[out] [empty]

[in] Using the record for C=CCN(C)C(=O)n1cnc(S(=O)(=O)C(F)(F)C(F)F)n1 [Example 65] , report its Pre-emergence activity GR80, SASKR.
[out] [empty]

[in] Using the record for CCN(CC)C(=O)n1cnc(S(=O)(=O)C(F)(F)SC)n1 [Example 9] , report its Pre-emergence activity GR80, SASKR.
[out] 300 g/ha

###

Quick list: Pre-emergence activity (GR80) DIGSA per entry.
Test system: DIGSA (large crabgrass)
Experiment: Pre-emergence herbicidal activity, warm season
Format: in vivo, Digitaria sanguinalis
Settings: GR80 = lowest tested rate (300, 100, 30, 10 g/ha) with 80% or greater inhibition; approx. 14 days after treating; 30/21° C.
Number plus unit, in that order.

Some molecules with known Pre-emergence activity (GR80) DIGSA results, for comparison:
1. CCN(CC)C(=S)n1cnc(S(=O)(=O)C(F)(F)Cl)n1 : 300 g/ha
2. C=CCC(F)(F)S(=O)(=O)c1ncn(C(=O)N(CC)CC)n1 : 100 g/ha
3. CCSC(F)(F)S(=O)(=O)c1ncn(C(=O)N(C)C2CCCCC2)n1 : 300 g/ha
4. CCN(CC)C(=O)n1cnc(S(=O)(=O)C(F)(F)Br)n1 : 30 g/ha
5. C#CCN(C)C(=O)n1cnc(S(=O)(=O)C(F)F)n1 : 300 g/ha

[in] Using the record for CCN(CC)C(=O)n1cnc(S(=O)(=O)C(F)(F)SC)n1 , report its Pre-emergence activity (GR80) DIGSA.
[out] 100 g/ha

[in] Using the record for COCCN(C)C(=O)n1cnc(S(=O)(=O)C(F)(F)C(F)F)n1 , report its Pre-emergence activity (GR80) DIGSA.
[out] 300 g/ha

[in] Using the record for O=C(N1CCCC1)n1cnc(S(=O)(=O)C(F)(F)Br)n1 , report its Pre-emergence activity (GR80) DIGSA.
[out] 300 g/ha

[in] Using the record for CCN(CC)C(=O)n1cnc(S(=O)(=O)C(F)(F)C(=O)c2ccccc2)n1 , report its Pre-emergence activity (GR80) DIGSA.
[out] 300 g/ha

[in] Using the record for O=C(N1CCCC1)n1cnc(S(=O)(=O)C(F)(F)C(F)F)n1 , report its Pre-emergence activity (GR80) DIGSA.
[out] 30 g/ha

[in] Using the record for C=C(Br)CC(F)(F)S(=O)(=O)c1ncn(C(=O)N(CC)CC)n1 , report its Pre-emergence activity (GR80) DIGSA.
[out] 100 g/ha

[in] Using the record for C=CCN(C)C(=O)n1cnc(S(=O)(=O)C(F)(F)Cl)n1 , report its Pre-emergence activity (GR80) DIGSA.
[out] 100 g/ha

[in] Using the record for CCCN(CC)C(=O)n1cnc(S(=O)(=O)C(F)(F)Cl)n1 , report its Pre-emergence activity (GR80) DIGSA.
[out] 300 g/ha

[in] Using the record for C=C(C)CC(F)(F)S(=O)(=O)c1ncn(C(=O)N(CC)CC)n1 , report its Pre-emergence activity (GR80) DIGSA.
[out] 100 g/ha
